Where these numbers come from: PubChem BioAssay AID624351

experiment_notes: coupled detection enzyme interference, dose response, artefact control for MgcRacGAP inhibitor project, biochemical, coupled enzyme counter-screen (AID 624351);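 also: signal is the ADP detection kit reading of free GDP without any GAP enzyme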
protocol_conditions: ADP Hunter coupled enzyme counter-screen, fluorescence, no MgcRacGAP; series mostly up to 80 µM
The whole screen tested about 2,400 compounds, of which about 1,400 (58%) were called active.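 The calls were made as follows: active = inhibition of 30% or more at any tested dose; inconclusive = primary hits over the limit that were never retested; inactive = the rest.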 The set was probably picked from earlier hits. Some of the results follow.
Outcome codes: T (active), F (inactive)

molecule	category_label
O=c1c2ccccc2sn1-c1cccc(Cl)c1	F
COc1cc(C2NC(=O)C(C#N)=C(S)N2c2ccccc2)ccc1OC(C)C (configuration not stated)	F
CC1(C)CC(=O)C=C(Nc2ccc(O)cc2)C1	T
CN(c1ccc(O)cc1)c1nc(-c2cccnc2)cs1	T
COc1ccc(NC(=O)CNCc2cccs2)c(OC)c1	F
O=C(C1CCN(Cc2cc(Cl)ccc2O)CC1)N1CCN(Cc2ccccc2)CC1	F
COc1ccccc1COCC(O)CNCC1(N2CCCCC2)CCCCC1 (configuration not stated)	F
COc1cc(/C=N/NC(=O)CNc2n[nH]c(=O)[nH]c2=O)ccc1O	T
O=[N+]([O-])c1cccc(SSc2cccc([N+](=O)[O-])c2)c1	F
N#CC1=C(S)N(c2ccccc2)C(c2ccc(-c3cccc(Cl)c3)o2)NC1=O (configuration not stated)	F
COc1cc(/C=N/NC(=O)CCc2n[nH]c(=O)[nH]c2=O)ccc1O	T
CCN(CC)S(=O)(=O)c1ccc(C)c(NC(=O)CN2CCN(Cc3ccccc3)CC2)c1	F
O=c1c(-c2ccccc2)c[nH]n1-c1cccc([N+](=O)[O-])c1	T
CCCCCCCCCCCCCCCC(O)C[N+](C)(C)CCO (configuration not stated)	F
COc1cc(/C=N/NC(=O)C(C)Nc2n[nH]c(=O)[nH]c2=O)ccc1O (configuration not stated)	T
O=C(CN1CCN(c2ccc(O)cc2)CC1)Nc1ccccc1C(=O)NCCc1ccccc1	T
COc1cc(/C=N/NC(=O)C2CCN(CC(O)COCc3ccccc3)CC2)ccc1O (configuration not stated)	T
COc1ccc(NC(=O)/C(Cl)=C(/Cl)S(=O)Cc2ccccc2)cn1 (configuration not stated)	F
CCn1nc(NS(=O)(=O)c2ccccc2[N+](=O)[O-])c2cc3ccc(C)cc3nc21	F
COc1ccc(Oc2c(-c3ccc(O)cc3O)n[nH]c2C)cc1	T
O=C(CN1CCN(C/C=C/c2ccccc2)CC1)Nc1ccccc1C(=O)NC1CC1	F
Oc1ccc(N2CCN(C(=S)NCCc3ccccc3)CC2)cc1	T

---

experiment_notes: coupled detection enzyme interference, dose response, artefact control for MgcRacGAP inhibitor project, biochemical, coupled enzyme counter-screen (AID 624351);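 also: signal is the ADP detection kit reading of free GDP without any GAP enzyme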
protocol_conditions: ADP Hunter coupled enzyme counter-screen, fluorescence, no MgcRacGAP; series mostly up to 80 µM
About 1,400 (58%) of roughly 2,400 compounds were called active.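 Rule for the calls: active = inhibition of 30% or more at any tested dose; inconclusive = primary hits over the limit that were never retested; inactive = the rest.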 So high a share suggests a set chosen from earlier hits. The list shows a part of the results.
Outcome codes: True (active), False (inactive)

compound	category_label
Oc1ccc2ccc(Cl)cc2c1	True
Cc1ncc(CO)c(/C=N/Nc2ccc(C(F)(F)F)cn2)c1O	False
O=C(O)CN1C(=O)/C(=C/c2ccc(SCc3ccccc3)o2)SC1=S	False
O=C(N/N=C/c1ccc(O)cc1)c1cccc(C(F)(F)F)c1	True
COc1ccc(CN2CCN(Cc3c[nH]c4ccccc34)CC2)c(OC)c1	False
Oc1ccc(/C=N/Nc2ccc(C(F)(F)F)cn2)cc1	True
O=C1C(=Cc2cccc(O)c2O)SC(=S)N1CCCN1CCOCC1	False
CC1CC(=O)N(c2ccc(NCCc3ccc(O)cc3)c([N+](=O)[O-])c2)C1=O (centres undefined)	True
O=C1C=CC(=O)N1c1ccccc1N1C(=O)C=CC1=O	False
COc1cc(/C=C2\SC(=S)N(NC(=O)c3ccc(O)cc3)C2=O)ccc1O	True
COc1cc(/C=C2\SC(=S)N(NC(=O)c3ccncc3)C2=O)ccc1O	True
CN(C)c1ccc(NS(=O)(=O)c2cc(Cl)ccc2Cl)cc1	True
CSc1ccccc1NC(=O)CNCCCN1CCOCC1	False
C[n+]1c2cc(N)ccc2cc2ccc(N)cc21	False
COc1cc(/C=N/Nc2ncc(C(F)(F)F)cc2Cl)cc(OC)c1O	False
COc1cc(/C=C2\SC(=S)N(Nc3ccccc3)C2=O)ccc1O	True
CC(=O)NN1C(=O)/C(=C\c2ccc(Br)o2)SC1=S	False
O=C(O)c1cc(N2C(=O)C=CC2=O)cc(N2C(=O)C=CC2=O)c1	False
CC(NS(=O)(=O)c1ccc(Cl)cc1)C(=O)OCC(=O)Nc1ccc(N(C)C)cc1 (centres undefined)	True
CC(C)(C)N(NS(=O)(=O)c1ccc(F)cc1)c1ccccc1	False
Nc1ccc2ccc(O)cc2c1	True
COc1cc2c(CCNC(C)=O)c[nH]c2cc1O	True
COc1cc(/C=C2\SC(=S)N(NC(=O)c3cccc(O)c3)C2=O)ccc1O	True
S=c1[nH]nc2sc3ccccc3n12	True
